Where do these numbers come from? They come from ChEMBL document CHEMBL4689842.

- Tested on: HEK-293T
- EXPERIMENT: Multiplex assay against HEK293T
- Assay type: toxicity, cell-based
- MEASUREMENT CONTEXT: human, 12 h, 1 µM, compound concentration 1 uM, replicate 1
Parameter Population Fragmented Nuclei (%): see the listing below.

{"COMPOUND": "C=CC(=O)Nc1cc(-n2c(=O)ccc3cnc4ccc(-c5ccc(NS(C)(=O)=O)cc5)cc4c32)ccc1C", "Population Fragmented Nuclei (%)": "15%"}
{"COMPOUND": "Cc1c(P(=S)(c2ccccc2)c2ccccc2)n2ccccc2[n+]1C/C=C/c1ccccc1.[Br-]", "Population Fragmented Nuclei (%)": "12%"}
{"COMPOUND": "CCOC(=O)CCNc1cc(N2CCc3ccccc3CC2)nc(-c2ccccn2)n1", "Population Fragmented Nuclei (%)": "15%"}
{"COMPOUND": "Oc1cccc(-c2nc(N3CCOCC3)c3oc4ncccc4c3n2)c1 [PI-103]", "Population Fragmented Nuclei (%)": "6%"}
{"COMPOUND": "CCCc1cc(C)[nH]c(=O)c1CNC(=O)c1cc(-c2ccc(N3CCN(C(C)C)CC3)nc2)cc2c1cnn2C(C)C", "Population Fragmented Nuclei (%)": "13%"}
{"COMPOUND": "CC(/C=C1\\SC(=S)N(CCCC(=O)Nc2ccc(C(=O)O)c(O)c2)C1=O)=C\\c1ccccc1", "Population Fragmented Nuclei (%)": "11%"}
{"COMPOUND": "Cc1ccc(S(=O)(=O)NC2c3ccccc3Oc3ccccc32)cc1", "Population Fragmented Nuclei (%)": "11%"}
{"COMPOUND": "Cl.NC[C@@H]1O[C@H](C23CC4CC(CC(C4)C2)C3)Cc2c1ccc(O)c2O", "Population Fragmented Nuclei (%)": "10%"}
{"COMPOUND": "CC(C)[C@H](CO)Nc1nc(Nc2cccc(Cl)c2)c2ncn(C(C)C)c2n1 [PURVALANOLA]", "Population Fragmented Nuclei (%)": "8%"}

###

- Tested on: HEK-293T
- EXPERIMENT: Multiplex assay against HEK293T
- Type: toxicity, cell-based
- MEASUREMENT CONTEXT: human, 48 h, 10 µM, compound concentration 10 uM, replicate 1
MEASUREMENT TYPE: Population Fragmented Nuclei (%)

{"COMPOUND": "CN(c1cc(C(F)(F)F)nc(OCCC(=O)O)n1)c1cccc2c1CCC2", "TARGET SYSTEM": "HEK-293T", "MEASUREMENT TYPE": "Population Fragmented Nuclei (%)", "NUMERIC VALUE": 15}
{"COMPOUND": "Cc1c(P(=S)(c2ccccc2)c2ccccc2)n2ccccc2[n+]1C/C=C/c1ccccc1.[Br-]", "TARGET SYSTEM": "HEK-293T", "MEASUREMENT TYPE": "Population Fragmented Nuclei (%)", "NUMERIC VALUE": 45}
{"COMPOUND": "Oc1cccc(-c2nc(N3CCOCC3)c3oc4ncccc4c3n2)c1 [PI-103]", "TARGET SYSTEM": "HEK-293T", "MEASUREMENT TYPE": "Population Fragmented Nuclei (%)", "NUMERIC VALUE": 29}
{"COMPOUND": "CCCc1cc(C)[nH]c(=O)c1CNC(=O)c1cc(-c2ccc(N3CCN(C(C)C)CC3)nc2)cc2c1cnn2C(C)C", "TARGET SYSTEM": "HEK-293T", "MEASUREMENT TYPE": "Population Fragmented Nuclei (%)", "NUMERIC VALUE": 20}
{"COMPOUND": "Cc1ccc(S(=O)(=O)NC2c3ccccc3Oc3ccccc32)cc1", "TARGET SYSTEM": "HEK-293T", "MEASUREMENT TYPE": "Population Fragmented Nuclei (%)", "NUMERIC VALUE": 13}
{"COMPOUND": "C[C@@H](Oc1cc(-n2cnc3ccc(CN4CCN(C)CC4)cc32)sc1C(N)=O)c1ccccc1C(F)(F)F [GSK-461364]", "TARGET SYSTEM": "HEK-293T", "MEASUREMENT TYPE": "Population Fragmented Nuclei (%)", "NUMERIC VALUE": 27}
{"COMPOUND": "CC(C)c1cc(Nc2nc(N3CCC[C@H](N)C3)ncc2C(N)=O)cc(C(C)C)n1", "TARGET SYSTEM": "HEK-293T", "MEASUREMENT TYPE": "Population Fragmented Nuclei (%)", "NUMERIC VALUE": 22}
{"COMPOUND": "c1ccc(-c2oc3ncnc(NC[C@@H]4CCCO4)c3c2-c2ccccc2)cc1", "TARGET SYSTEM": "HEK-293T", "MEASUREMENT TYPE": "Population Fragmented Nuclei (%)", "NUMERIC VALUE": 26}
{"COMPOUND": "CCCCCNC(=N)N/N=C/c1c[nH]c2ccc(OC)cc12.O=C(O)/C=C\\C(=O)O [TEGASEROD MALEATE]", "TARGET SYSTEM": "HEK-293T", "MEASUREMENT TYPE": "Population Fragmented Nuclei (%)", "NUMERIC VALUE": 36}
{"COMPOUND": "CN1C(=O)[C@@H](NC(=O)c2cc3ccccc3[nH]2)N=C(c2ccccc2)c2ccccc21 [DEVAZEPIDE]", "TARGET SYSTEM": "HEK-293T", "MEASUREMENT TYPE": "Population Fragmented Nuclei (%)", "NUMERIC VALUE": 24}
{"COMPOUND": "N#CCNC(=O)c1ccc(-c2ccnc(Nc3ccc(N4CCOCC4)cc3)n2)cc1 [MOMELOTINIB]", "TARGET SYSTEM": "HEK-293T", "MEASUREMENT TYPE": "Population Fragmented Nuclei (%)", "NUMERIC VALUE": 18}
{"COMPOUND": "CC(/C=C1\\SC(=S)N(CCCC(=O)Nc2ccc(C(=O)O)c(O)c2)C1=O)=C\\c1ccccc1", "TARGET SYSTEM": "HEK-293T", "MEASUREMENT TYPE": "Population Fragmented Nuclei (%)", "NUMERIC VALUE": 17}
{"COMPOUND": "CN1CCN(Cc2ccc(-c3cnc4[nH]cc(-c5ccc6[nH]ccc6c5)c4c3)cc2)CC1", "TARGET SYSTEM": "HEK-293T", "MEASUREMENT TYPE": "Population Fragmented Nuclei (%)", "NUMERIC VALUE": 29}
{"COMPOUND": "CC(Cc1ccc(O)c(O)c1)C(C)Cc1ccc(O)c(O)c1 (stereo not given) [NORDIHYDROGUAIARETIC ACID]", "TARGET SYSTEM": "HEK-293T", "MEASUREMENT TYPE": "Population Fragmented Nuclei (%)", "NUMERIC VALUE": 21}
{"COMPOUND": "N#Cc1cccc(C(=O)Nc2cc(-c3ccccc3)nn2-c2ccccc2)c1", "TARGET SYSTEM": "HEK-293T", "MEASUREMENT TYPE": "Population Fragmented Nuclei (%)", "NUMERIC VALUE": 14}
{"COMPOUND": "Cc1c(Nc2ccc(S(=O)(=O)N3CCN(C)CC3)cc2F)nc2ccc(-c3cnn(C4CC4)c3)cn2c1=O", "TARGET SYSTEM": "HEK-293T", "MEASUREMENT TYPE": "Population Fragmented Nuclei (%)", "NUMERIC VALUE": 37}
{"COMPOUND": "CC(C)[C@H](CO)Nc1nc(Nc2cccc(Cl)c2)c2ncn(C(C)C)c2n1 [PURVALANOLA]", "TARGET SYSTEM": "HEK-293T", "MEASUREMENT TYPE": "Population Fragmented Nuclei (%)", "NUMERIC VALUE": 8}
{"COMPOUND": "CCCCN(CC)c1nc(C)nc2c1c(C)cn2-c1c(C)cc(C)cc1C.Cl", "TARGET SYSTEM": "HEK-293T", "MEASUREMENT TYPE": "Population Fragmented Nuclei (%)", "NUMERIC VALUE": 13}
{"COMPOUND": "Cl.NC[C@@H]1O[C@H](C23CC4CC(CC(C4)C2)C3)Cc2c1ccc(O)c2O", "TARGET SYSTEM": "HEK-293T", "MEASUREMENT TYPE": "Population Fragmented Nuclei (%)", "NUMERIC VALUE": 21}
{"COMPOUND": "C=CC(=O)Nc1cc(-n2c(=O)ccc3cnc4ccc(-c5ccc(NS(C)(=O)=O)cc5)cc4c32)ccc1C", "TARGET SYSTEM": "HEK-293T", "MEASUREMENT TYPE": "Population Fragmented Nuclei (%)", "NUMERIC VALUE": 24}

###

- Test system: Fibroblast
- EXPERIMENT: Multiplex assay against human fibroblast
- Format: toxicity, cell-based
- MEASUREMENT CONTEXT: 24 h, 10 µM, compound concentration 10 uM, replicate 1
Parameter Total Cell Count: see the listing below.

{"MOLECULE": "CC(C)[C@H](CO)Nc1nc(Nc2cccc(Cl)c2)c2ncn(C(C)C)c2n1", "Total Cell Count": 145}
{"MOLECULE": "c1ccc(-c2oc3ncnc(NC[C@@H]4CCCO4)c3c2-c2ccccc2)cc1", "Total Cell Count": 99}
{"MOLECULE": "CCCCN(CC)c1nc(C)nc2c1c(C)cn2-c1c(C)cc(C)cc1C.Cl", "Total Cell Count": 97}
{"MOLECULE": "CC(C)c1cc(Nc2nc(N3CCC[C@H](N)C3)ncc2C(N)=O)cc(C(C)C)n1", "Total Cell Count": 92}
{"MOLECULE": "CC[C@H](Nc1ncnc2[nH]cnc12)c1nc2cccc(F)c2c(=O)n1-c1ccccc1", "Total Cell Count": 221}
{"MOLECULE": "Cl.Cn1c2c(c3ccc(Cl)c(Cl)c31)C(C#N)C1(CCNCC1)NC2=O (centres undefined)", "Total Cell Count": 492}
{"MOLECULE": "Cc1c(Nc2ccc(S(=O)(=O)N3CCN(C)CC3)cc2F)nc2ccc(Nc3cnn(C4CC4)c3)cn2c1=O", "Total Cell Count": 293}
{"MOLECULE": "N#Cc1cccc(C(=O)Nc2cc(-c3ccccc3)nn2-c2ccccc2)c1", "Total Cell Count": 119}
{"MOLECULE": "Cc1ccc(S(=O)(=O)NC2c3ccccc3Oc3ccccc32)cc1", "Total Cell Count": 170}
